species on record: Rattus norvegicus; assay: DrugMatrix - Regimen: Daily Repeat; assay type: toxicity, organism-based, Sprague-Dawley; set-up: regimen Daily Repeat, gender Male, age 6-8 weeks; conditions: in vivo, sc, 0 mg/kg, 120 h, tissue Plasma, route subcutaneous, dose level Control, time 5 day, […]
metric-name: LIPASE (u/L)

molecule	metric-name	unit-of-measure	experimental-value
CCN(CC)CCOCCC1=CCC2CC1C2(C)C (stereo not given)	LIPASE	u/L	9.83
Oc1c(Cl)cc(Cl)c(Cl)c1Cc1c(O)c(Cl)cc(Cl)c1Cl	LIPASE	u/L	10
CC(C)(C)CC(C)(C)c1ccc(OCCOCC[N+](C)(C)Cc2ccccc2)cc1.[Cl-] [BENZETHONIUM CHLORIDE]	LIPASE	u/L	10
CCC(=O)O[C@]1(C(=O)CCl)[C@@H](C)C[C@H]2[C@@H]3CCC4=CC(=O)C=C[C@]4(C)[C@@]3(F)[C@@H](O)C[C@@]21C [CLOBETASOL PROPIONATE]	LIPASE	u/L	8.33
O=C(Nc1ccc(Br)cc1)c1cc(Br)cc(Br)c1O	LIPASE	u/L	8.33

----------
species: Rattus norvegicus; test: DrugMatrix - Regimen: Daily Repeat; format: toxicity, organism-based, Sprague-Dawley; design: regimen Daily Repeat, gender Male, age 6-8 weeks; settings: in vivo, po, 50 mg/kg, 72 h, tissue Plasma, route oral GAVAGE, dose level Low, time 3 day, vehicle .5 % CMC
# reported ALBUMIN; entries follow
metric-name: ALBUMIN

compound	experimental-value
NC1CCN(c2nc3c(cc2F)c(=O)c(C(=O)O)cn3-c2ccc(F)cc2F)C1 (centres undefined)	3.4 G/DL
Cc1cccc(C)c1OCC(C)N (centres undefined)	4.47 G/DL
CN(C)[C@@H]1C(O)=C(C(N)=O)C(=O)[C@@]2(O)C(O)=C3C(=O)c4c(O)ccc(Cl)c4[C@@](C)(O)[C@H]3C[C@@H]12	4.07 G/DL
CCN1CCC[C@H]1CNC(=O)c1cc(S(N)(=O)=O)ccc1OC [LEVOSULPIRIDE]	3.7 G/DL

----------
# reported LYMPHOCYTE; entries follow
species on record: Rattus norvegicus; test: DrugMatrix - Regimen: Daily Repeat; assay type: toxicity, organism-based, Sprague-Dawley; design: regimen Daily Repeat, gender Male, age 6-8 weeks; conditions: in vivo, po, 10 mg/kg, 120 h, tissue Blood, route oral GAVAGE, dose level Low, time 5 day, vehicle .5 % CMC

compound	unit-of-measure	LYMPHOCYTE
CNCCC(Oc1ccc(C(F)(F)F)cc1)c1ccccc1 (centres undefined) [FLUOXETINE]	%	91
O=C1C(CC[S+]([O-])c2ccccc2)C(=O)N(c2ccccc2)N1c1ccccc1 (centres undefined) [SULFINPYRAZONE]	%	91.67
O=C1CN=C(c2ccccc2Cl)c2cc([N+](=O)[O-])ccc2N1 [CLONAZEPAM]	%	91.67
Fc1ccc(C(c2ccc(F)cc2)N2CCN(C/C=C/c3ccccc3)CC2)cc1 [FLUNARIZINE]	%	93

----------
organism: Rattus norvegicus; test: DrugMatrix - Regimen: Daily Repeat; assay type: toxicity, organism-based, Sprague-Dawley; design: regimen Daily Repeat, gender Male, age 6-8 weeks; settings: in vivo, sc, 0 mg/kg, 120 h, tissue Plasma, route subcutaneous, dose level Control, time 5 day, […]
metric-name: ALKALINE PHOSPHATASE (u/L)

molecule	metric-name	experimental-value
CCC(=O)O[C@]1(C(=O)CCl)[C@@H](C)C[C@H]2[C@@H]3CCC4=CC(=O)C=C[C@]4(C)[C@@]3(F)[C@@H](O)C[C@@]21C [CLOBETASOL PROPIONATE]	ALKALINE PHOSPHATASE	393.17
O=C(Nc1ccc(Br)cc1)c1cc(Br)cc(Br)c1O	ALKALINE PHOSPHATASE	393.17
CC(C)(C)CC(C)(C)c1ccc(OCCOCC[N+](C)(C)Cc2ccccc2)cc1.[Cl-] [BENZETHONIUM CHLORIDE]	ALKALINE PHOSPHATASE	295.17
Oc1c(Cl)cc(Cl)c(Cl)c1Cc1c(O)c(Cl)cc(Cl)c1Cl	ALKALINE PHOSPHATASE	295.17
CCN(CC)CCOCCC1=CCC2CC1C2(C)C (stereo not given)	ALKALINE PHOSPHATASE	329.17

----------
organism: Rattus norvegicus; experiment: DrugMatrix - Regimen: Daily Repeat; assay type: toxicity, organism-based, Sprague-Dawley; set-up: regimen Daily Repeat, gender Male, age 6-8 weeks; conditions: in vivo, sc, 0 mg/kg, 120 h, tissue Blood, route subcutaneous, dose level Control, time 5 day, […]
# reported ABSOLUTE EOSINOPHIL; entries follow
metric-name: ABSOLUTE EOSINOPHIL (CELLS/uL)

compound	metric-name	unit-of-measure	experimental-value
CC(C)(C)CC(C)(C)c1ccc(OCCOCC[N+](C)(C)Cc2ccccc2)cc1.[Cl-] [BENZETHONIUM CHLORIDE]	ABSOLUTE EOSINOPHIL	CELLS/uL	0
Oc1c(Cl)cc(Cl)c(Cl)c1Cc1c(O)c(Cl)cc(Cl)c1Cl	ABSOLUTE EOSINOPHIL	CELLS/uL	0
O=C(Nc1ccc(Br)cc1)c1cc(Br)cc(Br)c1O	ABSOLUTE EOSINOPHIL	CELLS/uL	188.5
CCC(=O)O[C@]1(C(=O)CCl)[C@@H](C)C[C@H]2[C@@H]3CCC4=CC(=O)C=C[C@]4(C)[C@@]3(F)[C@@H](O)C[C@@]21C [CLOBETASOL PROPIONATE]	ABSOLUTE EOSINOPHIL	CELLS/uL	188.5
CCN(CC)CCOCCC1=CCC2CC1C2(C)C (stereo not given)	ABSOLUTE EOSINOPHIL	CELLS/uL	91.17

----------
species: Rattus norvegicus; test: DrugMatrix - Regimen: Daily Repeat; assay type: toxicity, organism-based, Sprague-Dawley; design: regimen Daily Repeat, gender Male, age 6-8 weeks; details: in vivo, po, 0 mg/kg, 72 h, tissue Plasma, route oral GAVAGE, dose level Control, time 3 day, […]
# reported PHOSPHORUS; entries follow

compound	PHOSPHORUS [mg/dL]
CO[C@H]1/C=C/O[C@@]2(C)Oc3c(C)c(O)c4c(O)c(c(/C=N/N5CCN(C6CCCC6)CC5)c(O)c4c3C2=O)NC(=O)/C(C)=C\C=C\[C@H](C)[C@H](O)[C@@H](C)[C@@H](O)[C@@H](C)[C@H](OC(C)=O)[C@@H]1C	11.1
CC(C)(C)NC(=O)[C@H]1CC[C@H]2[C@@H]3CC[C@H]4NC(=O)C=C[C@]4(C)[C@H]3CC[C@]12C [FINASTERIDE]	11.83
Clc1ccc(COC(Cn2ccnc2)c2ccc(Cl)cc2Cl)cc1 (centres undefined)	8.77
COc1cc(N)c(Cl)cc1C(=O)NC1CCN(CCCOc2ccc(F)cc2)CC1OC (centres undefined) [CISAPRIDE]	10.33

----------
species on record: Rattus norvegicus; test: DrugMatrix - Regimen: Daily Repeat; format: toxicity, organism-based, Sprague-Dawley; design: regimen Daily Repeat, gender Male, age 6-8 weeks; details: in vivo, po, 0 mg/kg, 72 h, tissue Plasma, route oral GAVAGE, dose level Control, time 3 day, vehicle .5 % CMC
metric-name: POTASSIUM (MEQ/L)

molecule	metric-name	unit-of-measure	experimental-value
COc1cc2nc(N3CCN(C(=O)c4ccco4)CC3)nc(N)c2cc1OC [PRAZOSIN]	POTASSIUM	MEQ/L	6.37
CC(=O)Oc1ccc(C(c2ccc(OC(C)=O)cc2)c2ccccn2)cc1 [BISACODYL]	POTASSIUM	MEQ/L	6.43
CNCCC(Oc1ccc(C(F)(F)F)cc1)c1ccccc1 (stereo not drawn) [FLUOXETINE]	POTASSIUM	MEQ/L	6.23
CCN(CC)CCOc1ccc(/C(=C(/Cl)c2ccccc2)c2ccccc2)cc1 [ENCLOMIPHENE]	POTASSIUM	MEQ/L	6.33
CN(C)[C@@H]1C(O)=C(C(N)=O)C(=O)[C@@]2(O)C(O)=C3C(=O)c4c(O)ccc(Cl)c4[C@@](C)(O)[C@H]3C[C@@H]12 [CHLORTETRACYCLINE]	POTASSIUM	MEQ/L	6.2
NC1CCN(c2nc3c(cc2F)c(=O)c(C(=O)O)cn3-c2ccc(F)cc2F)C1 (stereo not drawn) [TOSUFLOXACIN]	POTASSIUM	MEQ/L	6.9
NCCCC(O)(P(=O)(O)O)P(=O)(O)O [ALENDRONIC ACID]	POTASSIUM	MEQ/L	6.8
Clc1ccccc1CN1CCc2sccc2C1 [TICLOPIDINE]	POTASSIUM	MEQ/L	6.8
CC(C(=O)O)c1ccc2oc(-c3ccc(Cl)cc3)nc2c1 (stereo not drawn) [BENOXAPROFEN]	POTASSIUM	MEQ/L	6.7
COC1=C(OC)C(=O)C(CCCCCCCCCCO)=C(C)C1=O [IDEBENONE]	POTASSIUM	MEQ/L	6.21
O=C1Nc2ccc(Cl)cc2C(c2ccccc2Cl)=NC1O (stereo not drawn) [LORAZEPAM]	POTASSIUM	MEQ/L	6.37
O=C1CN=C(c2ccccc2Cl)c2cc([N+](=O)[O-])ccc2N1 [CLONAZEPAM]	POTASSIUM	MEQ/L	6.21
O=C1C(CC[S+]([O-])c2ccccc2)C(=O)N(c2ccccc2)N1c1ccccc1 (stereo not drawn) [SULFINPYRAZONE]	POTASSIUM	MEQ/L	6.37
CN(C/C=C/C#CC(C)(C)C)Cc1cccc2ccccc12 [TERBINAFINE]	POTASSIUM	MEQ/L	6.9
Cn1c(=O)c2c(ncn2CC(O)CO)n(C)c1=O (stereo not drawn) [DYPHYLLINE]	POTASSIUM	MEQ/L	6.2
CN/C(=N/CCSCc1nc[nH]c1C)NC#N [CIMETIDINE]	POTASSIUM	MEQ/L	6.21
C[C@H]1O[C@@H](n2cc(F)c(=O)[nH]c2=O)[C@H](O)[C@@H]1O [DOXIFLURIDINE]	POTASSIUM	MEQ/L	6.21
COc1ccc(C2C(=O)c3ccccc3C2=O)cc1 [ANISINDIONE]	POTASSIUM	MEQ/L	6.8
